Test system: U-2932
Assay: growth inhibition by drug alone (1 - RLU/untreated control) (fraction); higher = stronger inhibition
Conditions: 10 nM; time (day): 3; 177Lu-lilotomab satetraxetan 0 ug/ml
Counter-ions that a name gives are not always drawn.
Reported endpoint: growth inhibition by drug alone
Number only, no unit.

Before answering, review these 5 worked examples.
1) COc1cc2ncnc(Nc3cccc(Br)c3)c2cc1OC = 0.0352
2) O=C1C(Cl)=C(NCCN2CCOCC2)C(=O)c2ncccc21 = 0.114
3) O=C1c2c(O)ccc(O)c2C(=O)c2c(NCCNCCO)ccc(NCCNCCO)c21 [Mitoxantrone Hydrochloride] = 0.436
4) C[C@@H](Oc1cc(-n2cnc3ccc(CN4CCN(C)CC4)cc32)sc1C(N)=O)c1ccccc1C(F)(F)F = 0.444
5) Nc1ccccc1NC(=O)c1ccc(CNc2nccc(-c3cccnc3)n2)cc1 [Mocetinostat (MGCD0103)] = 0.00982

Query: Entry N#Cc1ccc(NC(=O)Nc2ccccc2Br)c2n[nH]nc12 : reported growth inhibition by drug alone = ?
Response: 0.122

Query: Fill in: growth inhibition by drug alone of COc1cccc2c1C(=O)c1c(O)c3c(c(O)c1C2=O)C[C@@](O)(C(=O)CO)C[C@@H]3O[C@H]1C[C@H](N)[C@H](O)[C@H](C)O1 [Doxorubicin (Adriamycin)] is ___
Response: 0.258

Query: Could you share which growth inhibition by drug alone value was measured for NC(=O)c1ccc(-c2nc(-c3ccccn3)c(-c3ccc4c(c3)OCO4)[nH]2)cc1 ?
Response: 0.107

Query: Tell me the measured growth inhibition by drug alone of O=C(Nc1cccc(Cl)c1)Nc1ncc(CCNc2ncnc3ccsc23)s1 , please.
Response: 0.0932

Query: Returns the measured growth inhibition by drug alone for the input compound. Input: CNC(=O)c1cc(Oc2ccc(NC(=O)Nc3ccc(Cl)c(C(F)(F)F)c3)c(F)c2)ccn1 [Regorafenib (BAY 73-4506)]
Response: 0.146

Query: # query: growth inhibition by drug alone of entry CN1CCN(c2ccc3nc(-c4c(N)c5c(F)cccc5[nH]c4=O)[nH]c3c2)CC1 [Dovitinib (TKI-258)]
Response: 0.12

Query: growth inhibition by drug alone for O=C(O)c1ccc(-c2c[nH]c3ncc(-c4ccccc4)cc23)cc1C1CCCC1 ?
Response: 0.092

Query: Name the reported growth inhibition by drug alone value associated with the compound O=C(Nc1cccnc1)N1CCC(Cc2cccc(Oc3ccc(C(F)(F)F)cn3)c2)CC1
Response: 0.144

Query: Consider the compound O=C1c2ccccc2-c2nc3nonc3nc21 and give its measured growth inhibition by drug alone.
Response: 0.122

Query: Please report the recorded growth inhibition by drug alone for Cc1nc(Nc2ncc(C(=O)Nc3c(C)cccc3Cl)s2)cc(N2CCN(CCO)CC2)n1 .
Response: -0.00248

Query: # lookup: growth inhibition by drug alone of N#CCNC(=O)c1ccc(-c2ccnc(Nc3ccc(N4CCOCC4)cc3)n2)cc1
Response: -0.0265

Query: Need growth inhibition by drug alone, item CCc1cc(Nc2nccc(-c3c(-c4ccc(OC)c(C(=O)Nc5c(F)cccc5F)c4)nc4ccccn34)n2)c(OC)cc1N1CCC(N2CCN(S(C)(=O)=O)CC2)CC1
Response: 0.0467

Query: # growth inhibition by drug alone lookup, item O=c1cc(-c2cccc3c2Sc2ccccc2S3)oc(N2CCOCC2)c1
Response: -0.0795
